tgt: MASP-2 CCP2-SP (Homo sapiens (Human))
Sequence (O00187 445-686): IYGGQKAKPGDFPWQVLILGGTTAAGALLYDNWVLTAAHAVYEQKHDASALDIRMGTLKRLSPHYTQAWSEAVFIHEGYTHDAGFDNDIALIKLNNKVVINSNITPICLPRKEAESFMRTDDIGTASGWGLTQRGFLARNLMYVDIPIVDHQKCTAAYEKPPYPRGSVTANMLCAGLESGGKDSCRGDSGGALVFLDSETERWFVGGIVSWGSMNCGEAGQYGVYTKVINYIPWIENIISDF
Sequence (O00187 364-432 partner): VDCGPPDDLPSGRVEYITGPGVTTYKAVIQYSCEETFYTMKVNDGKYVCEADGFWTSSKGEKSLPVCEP
assayNotes: MASP-2 co-crystallization, X-ray crystallography and structure analysis (H-bonds, van der Waals contacts)
Set-up: unit not given beside the values
protocolConditions: Table A2-13; MASP-2 TRP 655 CZ3
Structures can show the parent of a compound that is named as a salt.
Item-by-item account of van der Waals contact distance TRP 655 atom CZ3
Returns: the value as a bare number; no unit string appended.

Please review the following examples before continuing.
> print(dat)
                                   compound  observedvalue
1  C[C@H](NC(=O)[C@H]1C[C@@H](c2ccccc2)CCN1)C(=O)NCc1cnc2[nH]cc(Cl)c2c1           3.73
2  Cc1nc(N)ccc1CNC(=O)[C@H](C)NC(=O)[C@H]1C[C@H](Cc2ccccc2-c2ccccc2)CN1 [compound 1373, Di-trifluoroacetate salt]           3.57
3  Cc1cccc([C@H]2CN[C@@H](C(=O)N[C@@H](C)C(=O)NCc3ccc(N)nc3C)C2)c1 [compound 1257, Dihydrochloride]           3.77
4  Cc1nc(N)ccc1CNC(=O)[C@H](C)NC(=O)[C@H]1C[C@H](Cc2cccc(Cl)c2)CN1           3.53
5  Cc1nc(N)ccc1CNC(=O)[C@H](C)NC(=O)[C@H]1C[C@@H](c2ccccc2)CCN1 [compound 1253, Dihydrochloride]           3.71

Reported van der Waals contact distance TRP 655 atom CZ3 ( CC(=O)Nc1ccc(CCN[C@H](CCc2ccccc2)C(=O)N[C@@H](C)C(=O)NCc2ccc(N)nc2C)cc1 [compound 1368, Dihydrochloride] ) = 3.87
